Here, each record is paired with measured pull-down binding Z-score data.
Test system: TO-N3 (biotin conjugate)
Assay: pull-down binding Z-score (relative to library population); higher = stronger binding
Settings: RNA library: Library-2
Respond using a number only.

[
  {
    "PRIMARY SEQUENCE": "CAUGUUUAUCACCCGCGAAGAAGCUAUAAGACAUGUACGUGCAUGGAUUGGCUUCGAUGUCGAGGGGUGUCAUG [DMSMaPseq_invitro_SARS-CoV-2_Motif_326]",
    "pull-down binding Z-score": -0.771
  },
  {
    "PRIMARY SEQUENCE": "GGGAGAUUAAUGGUCCU [IAV_invivo_PB2_1_Motif_25+IAV_invivo_PB2_1_Motif_25]",
    "pull-down binding Z-score": 0.327
  },
  {
    "PRIMARY SEQUENCE": "AGUUUUUGUACACAAUUAAACCGUGCUUUAACU",
    "pull-down binding Z-score": -0.618
  },
  {
    "PRIMARY SEQUENCE": "GACAGGCUGGCCUCUGGAUGACCUGC [hsa-mir-5189]",
    "pull-down binding Z-score": 1.4
  },
  {
    "PRIMARY SEQUENCE": "UCCUGAUCUGAUGGAAGUCAUGA [hsa-mir-7843]",
    "pull-down binding Z-score": -0.0481
  },
  {
    "PRIMARY SEQUENCE": "AAGGUGGAGUUCUGGGUGCUGUUUUCCCACUCU [hsa-mir-378i]",
    "pull-down binding Z-score": 0.173
  }
]

Tested on TO-N3 (biotin conjugate): GAAGGGGAGUUUCCCUCUAUUCCCUUC [hsa-mir-3679] . Observed pull-down binding Z-score: -0.0396

Tested on TO-N3 (biotin conjugate): CUUUAUUAGAAG [DMSMaPseq_invitro_SARS-CoV-2_Motif_195] . Observed pull-down binding Z-score: -0.39

Tested on TO-N3 (biotin conjugate): UGCAAAUGCAAAGUUGGCUUUUGCA [hsa-mir-3680-2_3680-1] . Observed pull-down binding Z-score: -0.954

Tested on TO-N3 (biotin conjugate): GGACUUGAAAGAGCC . Observed pull-down binding Z-score: -0.45

----------
Test system: TO-N3 (biotin conjugate)
Test: pull-down binding Z-score (relative to library population); higher = stronger binding
Conditions: RNA library: Library-2
ASSAY METRIC: pull-down binding Z-score
Respond using a number only.

[
  {
    "PRIMARY SEQUENCE": "AGUGAGGCGUCGGCUGUGUUUCU [hsa-mir-2110]",
    "SYSTEM": "TO-N3 (biotin conjugate)",
    "pull-down binding Z-score": 0.741
  }
]

Record summary for CCCAGCUUUGUGACUGUAAGUGUUGGA [hsa-mir-184] : reported pull-down binding Z-score = 0.723

Record summary for AUCAUAAUAAAGGUGUCAUGAU [hsa-mir-3682] : reported pull-down binding Z-score = -0.879

Record summary for UAUAAAGUUUAUUAUGGUAAUGCUUUAGAUCAAGCCAUUUCCAUGUGGGCUCUUAUA : reported pull-down binding Z-score = -0.806

Record summary for GGGGCUGAGGCUGAGUCUUCCUCCC [hsa-mir-6756] : reported pull-down binding Z-score = 0.806

Record summary for ACCUCCUGGCUUUUCCUCUGCAGCAUGGCUCGGACCUAGUGCAAUGUUUAAGCU [hsa-mir-6826] : reported pull-down binding Z-score = 0.659
